# System: KM12 colon
# procedureText: NCI-60 one-dose screen, 48 h (100 = growth as untreated, 0 = no growth, -100 = all killed)
# experimentalSetup: 10 µM unless noted
This is part of a sample that, as a whole, favours compounds with a hit. Of some 83,000 tested, about 20% had one in any assay.
# label = label 1 if growth < 90% else label 0

Study these solved cases before continuing.
CSc1nc(C)c(C(=O)CCN2CCN(c3ccccn3)CC2)s1 = label 0
CCNc1nnnn1CC = label 0
CC(C)c1ccc(C(=O)OC2CCCC2)cc1 = label 0
CCCCCC/C=C1\CCC(CN2CCCC2)C1=O (stereo not drawn) = label 1
COc1cc(/C=C/c2ccnc3ccccc23)cc(OC)c1OC = label 1

growth under 90%? Item: CC(C)(C)c1ccc(CCO)cc1
label 0

growth under 90%? Item: Oc1ccc(Cl)cc1C(c1cc(Cl)ccc1O)C(Cl)(Cl)Cl
label 1

growth under 90%? Item: Cc1cc(C(=O)c2ccc(Cl)cc2)ccc1O
label 0

growth under 90%? Item: Oc1c(Cl)cc(Cl)cc1C=NCC1CCC(CN=Cc2cc(Cl)cc(Cl)c2O)CC1 (stereo not drawn)
label 0

growth under 90%? Item: Nc1cc(-c2ccccc2)ccc1O
label 0

growth under 90%? Item: c1csc(-c2[nH]nc3c2CCc2ccccc2-3)c1
label 1

growth under 90%? Item: O=C(CCl)N(c1ccccc1)c1ccccc1
label 0

growth under 90%? Item: COC(=O)Nc1nc2ccc(C3(c4ccc(F)cc4)OCCO3)cc2[nH]1
label 1
